Reported GI50 values, HCT-15.

Solved cases (3 shown):
| molecule | reportedProperty | observedResult |
| --- | --- | --- |
| C/C=C(/C)c1cnc(CC(C)C)c(=O)[nH]1 | GI50 | > 100 µM |
| CCOC(=O)c1csc(CCCCCCc2nc(C(=O)OCC)cs2)n1 | GI50 | > 60.5 µM |
| O=C1c2ccccc2C(=O)c2c1ccc(C1C(=O)c3ccccc3C1=O)c2-c1c(C2C(=O)c3ccccc3C2=O)ccc2c1C(=O)c1ccccc1C2=O | GI50 | > 100 µM |

Hey, HCT-15 data for `CN(C)C(=S)/N=c1\ss/c(=N\C(=S)N(C)C)n1-c1ccc(Cl)cc1` : GI50 came out at > 100 µM

Hey, HCT-15 data for CC1CC(=O)N2CCCNC2=C1C#N (stereo unspecified) : GI50 came out at > 100 µM

###

Listing: GI50 of selected compounds
Tested on: COLO 205
Assay: NCI tumour cell line growth inhibition, 48 h
Active and inactive are the calls of the source. Cut-off read from the data, not from the text of the source: active = GI50 up to about 1.1 µM and inactive = higher.

Solved cases (2 shown):
| compound | assayedSystem | GI50 |
| --- | --- | --- |
| [O-]/N=[N+](/[O-])C1CCCCC1=[N+]1CCOCC1 (stereo not drawn) | COLO 205 | > 100 µM (inactive) |
| Nc1ncc2c(n1)-c1ccccc1OC2N1CCCCC1 (stereo not drawn) | COLO 205 | > 100 µM (inactive) |

As a next step, examine the compound that follows.
The recorded GI50 for `CP(C)(=S)P(C)(C)=S` is > 100 µM (inactive)

###

System: CCRF-CEM
Assay: NCI tumour cell line growth inhibition, 48 h
Activity calls are given as the source filed them. Cut-off read from the data, not from the text of the source: active = GI50 up to about 1.1 µM and inactive = higher.
# valid calls are Y (active), N (inactive); nothing else

| molecule | labelClass |
| --- | --- |
| O=[N+]([O-])c1cccc2nccc(NCCN3CCOCC3)c12 | N |
| CN(C)Cc1cc(C(C)(C)C)cc(C2CCCCC2)c1O | N |
| NS(=O)(=O)c1nnc(NS(=O)(=O)c2cccc3cccnc23)s1 | N |
| O=C(NCCN(CCNC(=O)c1cccc(=O)n1O)CCNC(=O)c1cccc(=O)n1O)c1cccc(=O)n1O | N |
| C1CN(P2(N3CC3)=NP(N3CC3)(N3CC3)=NP(N3CC3)(N3CC3)=N2)CCO1 (configuration not stated) [FOTRETAMINE] | N |

Query block: Given `CSc1sc(=S)sc1C(=O)N(C)c1ccccc1` , state the outcome it received in this test.
Result block: N

Query block: Given `N#CC(C#N)SCc1ccccc1` , state the outcome it received in this test.
Result block: N

Query block: Given `Cc1cc(=O)oc2c(C)c(OCCCOc3ccc4c(C)cc(=O)oc4c3C)ccc12` , state the outcome it received in this test.
Result block: N

Query block: Given `O=C1CCC[C@H]2O[C@@H](COC(=O)c3ccccc3)C[C@H]2O1` , state the outcome it received in this test.
Result block: N

Query block: Given CC1=CC2CC(C)C1(C)CCc1ccoc12 (configuration not stated) , state the outcome it received in this test.
Result block: N

Query block: Given CN1CCc2cc(O)c3cc2C1Cc1ccc(cc1)Oc1cc(ccc1O)CC1c2c(cc4c(c2O3)OCO4)CCN1C (configuration not stated) , state the outcome it received in this test.
Result block: N

Query block: Given `CC/C(SC)=[N+](\C)[O-]` , state the outcome it received in this test.
Result block: N

Query block: Given COC(=O)/C(C#N)=C1\CCC(OC)N1C (configuration not stated) , state the outcome it received in this test.
Result block: N

Query block: Given `CCN(CC)CCOC(NC(C)=O)(c1ccccc1)c1ccccc1` , state the outcome it received in this test.
Result block: N

Query block: Given `O=C(Cn1c(-c2ccccc2)cc2ccccc21)N1CCOCC1` , state the outcome it received in this test.
Result block: N

Query block: Given CN(C)CC1CC/C(=C\c2ccc(Cl)cc2)C1=O (configuration not stated) , state the outcome it received in this test.
Result block: Y
